# Test system: UACC-257 melanoma
# assay-explanation: NCI tumour cell line growth inhibition, 48 h
quantity-kind: TGI (µM)

INSERT INTO assay_data (compound, quantity_kind, qualifier_symbol, value) VALUES
  ('COc1ccc(-c2n[nH]nc2-c2csc3ccccc23)cc1OC', 'TGI', '=', 55.6),
  ('O=C(Oc1ccccc1)c1cc2cc(CCl)ccc2oc1=O', 'TGI', '=', 27.5),
  ('CCCCCCCCCCCCCCCC(=O)OCC(O)C1OC(=O)C(O)=C1O (stereo not given)', 'TGI', '>', 100),
  ('CC(=O)c1ccc(Oc2ccc(/C(C)=N\N=C(N)N)cc2)cc1', 'TGI', '=', 19),
  ('CC(=O)O[C@H]1C[C@]2(C)C(CCC3O[C@@]32C)[C@@]2(CC(c3ccoc3)OC2O)[C@@H]1C (stereo not given in full)', 'TGI', '>', 100);
